The reported numbers originate from patent US12491188B2.

tested_target: human PARG (Homo sapiens (Human), UniProt Q86W56)
Sequence (Q86W56 389-976): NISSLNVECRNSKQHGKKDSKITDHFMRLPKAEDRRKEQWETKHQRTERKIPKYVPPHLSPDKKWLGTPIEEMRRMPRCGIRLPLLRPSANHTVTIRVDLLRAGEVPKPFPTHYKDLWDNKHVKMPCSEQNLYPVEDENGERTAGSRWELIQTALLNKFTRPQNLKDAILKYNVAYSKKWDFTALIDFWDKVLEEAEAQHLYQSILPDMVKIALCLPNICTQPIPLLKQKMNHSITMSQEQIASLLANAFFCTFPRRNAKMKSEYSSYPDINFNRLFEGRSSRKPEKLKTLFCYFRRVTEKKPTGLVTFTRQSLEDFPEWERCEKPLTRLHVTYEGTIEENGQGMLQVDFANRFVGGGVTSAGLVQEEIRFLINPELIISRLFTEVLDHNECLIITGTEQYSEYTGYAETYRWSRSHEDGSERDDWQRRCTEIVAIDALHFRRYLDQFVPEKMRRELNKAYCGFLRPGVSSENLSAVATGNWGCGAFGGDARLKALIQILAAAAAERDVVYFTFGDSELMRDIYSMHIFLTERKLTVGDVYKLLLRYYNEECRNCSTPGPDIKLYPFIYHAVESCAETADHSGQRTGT
test_name: Gel-based PARG activity assay
Format: biochemical
experimental_setup: hPARG 1 nM, PARylated PARP1C 500 nM; read-out: IC50 of PARG inhibition
pIC50: −log10 of the molar value.

| molecule_smiles | pIC50 |
| --- | --- |
| Cn1c(=O)[nH]c2nc(SCCN3CCOCC3)[nH]c2c1=O | 4.59 |
| O=C1C(Cl)=C(Cl)C(Cl)(Cl)C(Cl)=C1Cl | 6.40 |

====

tested_target: human PARG (Homo sapiens (Human), UniProt Q86W56)
test_name: Gel-based PARG activity assay
Format: biochemical
experimental_setup: Table 1; PARG inhibition; read-out: IC50
pIC50: −log10 of the molar value.
Item-by-item account of pIC50

| molecule | operator_symbol | pIC50 |
| --- | --- | --- |
| Cn1c(=O)c2[nH]c(SCCN3C(=O)c4ccccc4C3=O)nc2n(C)c1=O [LPF-I-81-1] | < | 4.60 |
| CCOC(=O)CCSc1nc2c([nH]1)c(=O)n(C)c(=O)n2C [LPF-I-83-1] | < | 4.60 |
| Cc1ccc(CSc2nc3c([nH]2)c(=O)n(C)c(=O)n3C)cc1 [LPF-I-64-1] | < | 4.60 |
| Cn1c(=O)c2[nH]c(SCc3ccccc3)nc2n(C)c1=O [LPF-I-51-1] | < | 4.60 |
| Cn1c(=O)c2[nH]c(SCCN3CCOCC3)nc2n(C)c1=S [JA2-5] | = | 6.00 |
| O=c1[nH]c2[nH]c(=S)[nH]c(=S)c2[nH]1 [JA2-3] | = | 7.00 |
| Cn1c(=S)c2[nH]c(SCCN3CCOCC3)nc2n(C)c1=O [LPF-I-146-1] | = | 6.40 |
| Cn1c(=O)c2[nH]c(SCc3c(Cl)cccc3Cl)nc2n(C)c1=O [LPF-I-68-1] | < | 4.60 |
| Cn1c(=O)c2[nH]c(SCc3ccc(F)cc3)nc2n(C)c1=O [LPF-I-53-1] | = | 4.19 |

====

tested_target: human PARG (Homo sapiens (Human), UniProt Q86W56)
test_name: Gel-based PARG activity assay
Format: biochemical
experimental_setup: Table 1; PARG inhibition; read-out: IC50
Item-by-item account of IC50

| molecule_smiles | IC50 |
| --- | --- |
| Cn1c(=S)[nH]c2nc(SCCN3CCCC3)[nH]c2c1=O | 0.9 µM |
| Cn1c(=O)[nH]c2nc(SCCN3CCOCC3)[nH]c2c1=O | 25.7 µM |
| Cn1c(=O)c2c(ncn2CCCC(=O)O)n(C)c1=O | > 100 µM |
| CCOC(=O)CSc1nc2c([nH]1)c(=O)n(C)c(=O)n2C | > 25 µM |
| Cn1c(=O)c2[nH]c(CCCC(=O)O)nc2n(C)c1=O | > 100 µM |
| Cn1c(=O)c2[nH]c(SCC(=O)OC(C)(C)C)nc2n(C)c1=O | > 25 µM |
